Values from ChEMBL document CHEMBL1287787

target: Mitogen-activated protein kinase 9 (Homo sapiens, UniProt P45984); test: Inhibition of recombinant JNK2 after 60 mins by TR-FRET assay
Sequence (P45984 whole entry): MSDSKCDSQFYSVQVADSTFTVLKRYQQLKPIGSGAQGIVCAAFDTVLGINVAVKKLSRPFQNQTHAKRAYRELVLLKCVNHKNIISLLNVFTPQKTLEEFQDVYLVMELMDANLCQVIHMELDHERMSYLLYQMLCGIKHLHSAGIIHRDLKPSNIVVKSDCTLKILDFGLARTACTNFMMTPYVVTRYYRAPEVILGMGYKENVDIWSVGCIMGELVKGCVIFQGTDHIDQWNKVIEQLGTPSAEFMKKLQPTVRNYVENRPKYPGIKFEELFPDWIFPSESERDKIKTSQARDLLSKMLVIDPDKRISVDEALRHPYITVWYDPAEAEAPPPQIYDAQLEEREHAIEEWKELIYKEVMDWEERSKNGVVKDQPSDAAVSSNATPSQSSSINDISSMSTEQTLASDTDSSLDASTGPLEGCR
compounds and their reported IC50

{"columns": ["structureNotation", "IC50"],
 "data": [
  ["COCCN(C)C(=O)c1sccc1NC(=O)Cc1ccccc1", "> 50 µM"]
]}

What value of measured IC50 is listed for `COc1ccc(CC(=O)Nc2ccsc2-c2cn(C)cn2)cc1` ?
> 50 µM

What value of measured IC50 is listed for `Cc1nc(-c2sccc2NC(=O)Cc2cccc3ccccc23)n(C)n1` ?
> 50 µM

---

molecules and their reported pIC50
biological target: Mitogen-activated protein kinase 10 (Homo sapiens, UniProt P53779); assay: Inhibition of recombinant JNK3 after 60 mins by TR-FRET assay
Sequence (P53779 whole entry): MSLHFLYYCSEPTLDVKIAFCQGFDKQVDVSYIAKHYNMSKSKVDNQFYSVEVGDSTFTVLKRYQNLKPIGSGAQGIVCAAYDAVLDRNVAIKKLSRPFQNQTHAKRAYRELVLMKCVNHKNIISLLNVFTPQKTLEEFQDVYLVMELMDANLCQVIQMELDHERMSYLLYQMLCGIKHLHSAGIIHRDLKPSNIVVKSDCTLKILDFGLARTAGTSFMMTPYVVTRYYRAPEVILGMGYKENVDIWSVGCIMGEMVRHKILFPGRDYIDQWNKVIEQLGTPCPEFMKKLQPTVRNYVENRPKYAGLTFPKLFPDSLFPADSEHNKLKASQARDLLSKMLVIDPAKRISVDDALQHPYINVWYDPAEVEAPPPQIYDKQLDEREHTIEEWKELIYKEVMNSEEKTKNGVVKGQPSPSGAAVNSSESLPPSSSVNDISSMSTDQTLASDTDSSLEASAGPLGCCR
pIC50: −log10 of the molar value.

Field: example entries. Status: answers known.
{"columns": ["structureNotation", "pIC50"],
 "data": [
  ["COC(=O)c1cccnc1NC(=O)Cc1cccc2ccccc12", "< 4.30"],
  ["COCCN(C)C(=O)c1sccc1NC(=O)Cc1ccccc1", "< 4.30"],
  ["COC(=O)c1nnsc1NC(=O)Cc1cccc2ccccc12", "< 4.30"],
  ["Cc1ccncc1NC(=O)Cc1cccc2ccccc12", "< 4.30"],
  ["COC(=O)c1nonc1NC(=O)Cc1cccc2ccccc12", "< 4.30"],
  ["COC(=O)c1scnc1NC(=O)Cc1cccc2ccccc12", "< 4.30"],
  ["O=C(Cc1ccccc1)Nc1ccsc1CO", "< 4.30"],
  ["COC(=O)c1sccc1NC(=O)Cc1ccc(OC)cc1", 6.00]
]}

What value of measured pIC50 is listed for `CCOC(=O)c1c(C)nsc1NC(=O)Cc1cccc2ccccc12` ?
< 4.30

What value of measured pIC50 is listed for `COc1ccc(CC(=O)Nc2ccsc2-c2nc(C(F)(F)F)n[nH]2)cc1` ?
5.23

What value of measured pIC50 is listed for `COC(=O)c1sccc1NC(=O)Cc1ccc(-c2ccncc2)cc1` ?
6.16
